Biological target: UniProt:P05067
Sequence (P05067 672-713): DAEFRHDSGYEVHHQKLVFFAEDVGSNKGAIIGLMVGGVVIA
Assay: Th-T (thioflavin-T) assay of Aβ42 aggregation
Format: biochemical
Details: measurement M10; source data, Ab alone and No Ab as controls
Decision: Th-T assay plate reading, mean of three wells (Supplementary Fig. 47) >= 0.7 yields class 1, all other cases yield class 0.

MOLECULE: C=C1CC[C@@H]2[C@](C)(CC[C@H]3O[C@H](C=C(C)C)C[C@@]23C)[C@@H]1Cc1c(OC)oc(CO)c(C(=O)OC)c1=O
MEASURED TARGET: UniProt:P05067
LABEL VALUE: class 0
--
MOLECULE: CC(C)=CCC/C(C)=C/CC/C(C)=C/CC/C(C)=C/Cc1c(O)c(C)c(C)oc1=O
MEASURED TARGET: UniProt:P05067
LABEL VALUE: class 1

[Q] Say whether C=C1CCC2C(C)(CC(=O)C=C(C)C)C(O)CCC2(C)C1Cc1c(OC)oc(CO)c(C)c1=O (stereo not drawn) shows Th-T assay plate reading, mean of three wells (Supplementary Fig. 47) of 0.7 or more.
[A] class 1

[Q] Another molecule: C=C1CCC2C(C)(CCC=C(C)C)C(O)CCC2(C)C1Cc1c(O)c(C)c(C)oc1=O (stereo not drawn) [Compound 9, higginsianin B]
[A] class 0
